Exercise: for every item that follows, state its recorded Ratio of JAK3 IC50 to IRAK4 IC50.
# target-or-test-system: JAK3 kinase (Homo sapiens (Human), UniProt P52333)
# Sequence (P52333 whole entry): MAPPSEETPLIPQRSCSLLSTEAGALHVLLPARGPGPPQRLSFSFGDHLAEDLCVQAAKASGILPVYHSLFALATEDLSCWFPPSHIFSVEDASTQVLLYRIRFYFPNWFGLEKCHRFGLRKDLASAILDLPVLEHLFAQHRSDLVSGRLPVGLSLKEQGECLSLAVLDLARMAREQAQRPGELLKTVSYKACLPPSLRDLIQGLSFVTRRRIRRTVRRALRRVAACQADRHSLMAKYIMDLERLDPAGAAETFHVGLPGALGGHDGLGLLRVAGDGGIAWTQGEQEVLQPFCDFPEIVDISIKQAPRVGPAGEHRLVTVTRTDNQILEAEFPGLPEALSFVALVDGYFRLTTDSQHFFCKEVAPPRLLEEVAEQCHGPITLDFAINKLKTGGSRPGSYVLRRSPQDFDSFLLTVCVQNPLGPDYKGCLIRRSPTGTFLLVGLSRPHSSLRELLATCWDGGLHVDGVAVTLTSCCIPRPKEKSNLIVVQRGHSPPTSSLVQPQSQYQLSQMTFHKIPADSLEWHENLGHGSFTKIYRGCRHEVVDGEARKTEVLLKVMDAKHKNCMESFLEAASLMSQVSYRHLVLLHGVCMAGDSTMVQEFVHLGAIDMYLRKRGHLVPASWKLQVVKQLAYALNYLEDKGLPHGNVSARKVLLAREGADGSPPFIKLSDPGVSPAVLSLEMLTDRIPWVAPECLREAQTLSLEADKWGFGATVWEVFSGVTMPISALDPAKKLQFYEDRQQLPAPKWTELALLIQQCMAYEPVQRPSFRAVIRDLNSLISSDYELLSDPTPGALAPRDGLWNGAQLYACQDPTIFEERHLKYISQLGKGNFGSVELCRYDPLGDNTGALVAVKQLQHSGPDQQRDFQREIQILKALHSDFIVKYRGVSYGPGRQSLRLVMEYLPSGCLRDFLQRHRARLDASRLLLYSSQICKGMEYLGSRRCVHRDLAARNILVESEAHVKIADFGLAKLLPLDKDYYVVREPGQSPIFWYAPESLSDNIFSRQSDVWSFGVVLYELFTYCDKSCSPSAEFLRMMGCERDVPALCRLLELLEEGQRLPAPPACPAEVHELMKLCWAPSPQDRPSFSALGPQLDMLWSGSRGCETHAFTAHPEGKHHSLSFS
# test-summary: JAK3 Homogeneous Time Resolved Fluorescence (HTRF) Assay
# Type: binding
# experimental-setup: selectivity for IRAK4 over JAK3

Task: # query: Ratio of JAK3 IC50 to IRAK4 IC50 | item CC(=O)N[C@H]1CC[C@H](NC(=O)c2cnn3cc(-c4ccc(C(N)=O)cc4F)cc3c2NC(C)C)CC1 | system: JAK3 kinase (Homo sapiens (Human), UniProt P52333)
Result: >543

Task: # query: Ratio of JAK3 IC50 to IRAK4 IC50 | item CC(C)Nc1c(C(=O)NC[C@@H](F)C(C)(C)O)cnn2cc(-c3ccccn3)cc12 | system: JAK3 kinase (Homo sapiens (Human), UniProt P52333)
Result: >2941

Task: # query: Ratio of JAK3 IC50 to IRAK4 IC50 | item CC(C)(O)[C@H](F)CNC(=O)c1cnc2cc(-c3cccnc3)nn2c1N[C@H]1CC[C@H](C(C)(C)O)CC1 | system: JAK3 kinase (Homo sapiens (Human), UniProt P52333)
Result: >943

Task: # query: Ratio of JAK3 IC50 to IRAK4 IC50 | item CC(C)Nc1c(C(=O)NC[C@@H](F)C(C)(C)O)cnn2cc(-c3cnc(N)nc3)cc12 | system: JAK3 kinase (Homo sapiens (Human), UniProt P52333)
Result: >2273

Task: # query: Ratio of JAK3 IC50 to IRAK4 IC50 | item CC(=O)N[C@H]1CC[C@H](NC(=O)c2cnn3cc(-c4ccc(F)cn4)cc3c2NC(C)C)CC1 | system: JAK3 kinase (Homo sapiens (Human), UniProt P52333)
Result: >1471

Task: # query: Ratio of JAK3 IC50 to IRAK4 IC50 | item CC(C)Nc1c(C(=O)NCCN2CCOCC2)cnn2cc(-c3cn[nH]c3)nc12 | system: JAK3 kinase (Homo sapiens (Human), UniProt P52333)
Result: >333

Task: # query: Ratio of JAK3 IC50 to IRAK4 IC50 | item CC(C)(O)CCNc1c(C(=O)NC[C@@H](F)C(C)(C)O)cnn2cc(-c3ccc(F)nc3)cc12 | system: JAK3 kinase (Homo sapiens (Human), UniProt P52333)
Result: >294

Task: # query: Ratio of JAK3 IC50 to IRAK4 IC50 | item CC(C)Nc1c(C(=O)NC[C@@H](F)C(C)(C)O)cnc2cc(-c3ccccn3)nn12 | system: JAK3 kinase (Homo sapiens (Human), UniProt P52333)
Result: >63

Task: # query: Ratio of JAK3 IC50 to IRAK4 IC50 | item CC(C)Nc1c(C(=O)NC[C@@H](F)C(C)(C)O)cnn2cc(-c3cccnc3)cc12 | system: JAK3 kinase (Homo sapiens (Human), UniProt P52333)
Result: 1938

Task: # query: Ratio of JAK3 IC50 to IRAK4 IC50 | item CC(C)CCNC(=O)c1cnn2cc(-c3ccncc3)cc2c1NC(C)C | system: JAK3 kinase (Homo sapiens (Human), UniProt P52333)
Result: ~2071

Task: # query: Ratio of JAK3 IC50 to IRAK4 IC50 | item CC(C)Nc1c(C(=O)NC[C@@H](F)C(C)(C)O)cnn2cc(Nc3ccncn3)cc12 | system: JAK3 kinase (Homo sapiens (Human), UniProt P52333)
Result: >617

Task: # query: Ratio of JAK3 IC50 to IRAK4 IC50 | item CC(C)Nc1c(C(=O)NC[C@@H](F)C(C)(C)O)cnn2cc(-c3cn[nH]c3)cc12 | system: JAK3 kinase (Homo sapiens (Human), UniProt P52333)
Result: >1493

Task: # query: Ratio of JAK3 IC50 to IRAK4 IC50 | item Cc1cc(F)ncc1-c1cn2ncc(C(=O)N[C@H]3C[C@H](C(C)(C)O)C3)c(NC(C)C)c2n1 | system: JAK3 kinase (Homo sapiens (Human), UniProt P52333)
Result: >521

Task: # query: Ratio of JAK3 IC50 to IRAK4 IC50 | item CC(=O)N[C@H]1CC[C@H](NC(=O)c2cnn3cc(-c4ccc(C#N)cc4)cc3c2NC(C)C)CC1 | system: JAK3 kinase (Homo sapiens (Human), UniProt P52333)
Result: >4167

Task: # query: Ratio of JAK3 IC50 to IRAK4 IC50 | item CC(C)Nc1c(C(=O)NC[C@@H](F)C(C)(C)O)cnc2cc(-c3ccc(C#N)cc3)nn12 | system: JAK3 kinase (Homo sapiens (Human), UniProt P52333)
Result: >4545

Task: # query: Ratio of JAK3 IC50 to IRAK4 IC50 | item CC(C)Nc1c(C(=O)NC2CCN(S(C)(=O)=O)CC2)cnn2cc(-c3ccc(F)nc3)cc12 | system: JAK3 kinase (Homo sapiens (Human), UniProt P52333)
Result: ~12400

Task: # query: Ratio of JAK3 IC50 to IRAK4 IC50 | item CC(C)(O)CCNc1c(C(=O)NC[C@@H](F)C(C)(C)O)cnn2cc(-c3cccnc3F)cc12 | system: JAK3 kinase (Homo sapiens (Human), UniProt P52333)
Result: >278

Task: # query: Ratio of JAK3 IC50 to IRAK4 IC50 | item CC(=O)N[C@H]1CC[C@H](NC(=O)c2cnn3cc(-c4cccnc4)cc3c2NC(C)C)CC1 | system: JAK3 kinase (Homo sapiens (Human), UniProt P52333)
Result: >8475

Task: # query: Ratio of JAK3 IC50 to IRAK4 IC50 | item CC(C)(O)[C@H](F)CNC(=O)c1cnn2cc(-c3ccc(C#N)cn3)cc2c1NC1CCOCC1 | system: JAK3 kinase (Homo sapiens (Human), UniProt P52333)
Result: >333

Task: # query: Ratio of JAK3 IC50 to IRAK4 IC50 | item COc1ccc(-c2cc3ncc(C(=O)NC[C@@H](F)C(C)(C)O)c(NC(C)C)n3n2)cn1 | system: JAK3 kinase (Homo sapiens (Human), UniProt P52333)
Result: >71

Task: # query: Ratio of JAK3 IC50 to IRAK4 IC50 | item CC(=O)N[C@H]1CC[C@H](NC(=O)c2cnn3cc(-c4ccc(C(N)=O)cc4)cc3c2NC(C)C)CC1 | system: JAK3 kinase (Homo sapiens (Human), UniProt P52333)
Result: >521

Task: # query: Ratio of JAK3 IC50 to IRAK4 IC50 | item CC(C)Nc1c(C(=O)NC[C@@H](F)C(C)(C)O)cnn2cc(-c3cccc(C#N)c3)nc12 | system: JAK3 kinase (Homo sapiens (Human), UniProt P52333)
Result: >208

Task: # query: Ratio of JAK3 IC50 to IRAK4 IC50 | item CC(C)(O)CCNc1c(C(=O)NC[C@@H](F)C(C)(C)O)cnn2cc(-c3cccc(F)c3)cc12 | system: JAK3 kinase (Homo sapiens (Human), UniProt P52333)
Result: >135

Task: # query: Ratio of JAK3 IC50 to IRAK4 IC50 | item CC(=O)N[C@H]1CC[C@H](NC(=O)c2cnn3cc(-c4ccncc4)cc3c2NC(C)C)CC1 | system: JAK3 kinase (Homo sapiens (Human), UniProt P52333)
Result: ~18571

Task: # query: Ratio of JAK3 IC50 to IRAK4 IC50 | item CC(C)(O)[C@H](F)CNC(=O)c1cnn2cc(-c3nccs3)cc2c1NC1CCOCC1 | system: JAK3 kinase (Homo sapiens (Human), UniProt P52333)
Result: >667

Task: # query: Ratio of JAK3 IC50 to IRAK4 IC50 | item CC(C)Nc1c(C(=O)N[C@H]2CC[C@H](N)CC2)cnn2cc(-c3ccncc3)cc12 | system: JAK3 kinase (Homo sapiens (Human), UniProt P52333)
Result: >5495

Task: # query: Ratio of JAK3 IC50 to IRAK4 IC50 | item CC(=O)N[C@H]1CC[C@H](NC(=O)c2cnn3c(Cl)c(-c4ccncc4)cc3c2NC(C)C)CC1 | system: JAK3 kinase (Homo sapiens (Human), UniProt P52333)
Result: ~17500

Task: # query: Ratio of JAK3 IC50 to IRAK4 IC50 | item CC(C)Nc1c(C(=O)NC[C@@H](F)C(C)(C)O)cnc2cc(-c3ccccc3F)nn12 | system: JAK3 kinase (Homo sapiens (Human), UniProt P52333)
Result: >455

Task: # query: Ratio of JAK3 IC50 to IRAK4 IC50 | item CC(C)Nc1c(C(=O)NC[C@@H](F)C(C)(C)O)cnn2cc(-c3cncs3)cc12 | system: JAK3 kinase (Homo sapiens (Human), UniProt P52333)
Result: >12821

Task: # query: Ratio of JAK3 IC50 to IRAK4 IC50 | item CC(C)Nc1c(C(=O)NC[C@@H](F)C(C)(C)O)cnn2cc(C3CC3)cc12 | system: JAK3 kinase (Homo sapiens (Human), UniProt P52333)
Result: >1087

Task: # query: Ratio of JAK3 IC50 to IRAK4 IC50 | item CC(C)(O)CCNc1c(C(=O)NC[C@@H](F)C(C)(C)O)cnn2cc(-c3ccc(C#N)nc3)cc12 | system: JAK3 kinase (Homo sapiens (Human), UniProt P52333)
Result: >208

The reported measurements were obtained from patent US12570659B2.
